Tested on: 616215-338-R-J1-PDC complex spheroid viability
assay: Anticancer human tumor 616215-338-R-J1-PDC patient-derived colon adenocarcinoma cell line growth inhibition [RAS]
settings: curve of first compound; second compound 0.0949 µM
I'd appreciate it if you could supply pIC50 values for the items below.
Give bare numbers, as −log10 of the molar value.

compound: O=C(c1ccc(F)c(F)c1Nc1ccc(I)cc1F)N1CC(O)([C@@H]2CCCCN2)C1 + CCn1c(-c2cccnc2C(C)OC)c2c3cc(ccc31)N1CCOC(CC(NC(=O)C(C(C)C)N(C)C(=O)C3(F)CCN(C(=O)C#CC(C)(C)N(C)C)CC3)C(=O)N3CCCC(N3)C(=O)OCC(C)(C)C2)C1
test_result: 7.32
//
compound: CCC(CC)c1cc(NC2CCC(N)C2)n2nccc2n1 (centres undefined) + CCn1c(-c2cccnc2C(C)OC)c2c3cc(ccc31)N1CCOC(CC(NC(=O)C(C(C)C)N(C)C(=O)C3(F)CCN(C(=O)C#CC(C)(C)N(C)C)CC3)C(=O)N3CCCC(N3)C(=O)OCC(C)(C)C2)C1
test_result: 5.74

Kindly consider the entry below.
Q) Give the measured pIC50 of NC1c2ccccc2OC12CCN(c1cnc3c(N4CCCc5ncccc54)n[nH]c3n1)CC2 (centres undefined) + CCn1c(-c2cccnc2C(C)OC)c2c3cc(ccc31)N1CCOC(CC(NC(=O)C(C(C)C)N(C)C(=O)C3(F)CCN(C(=O)C#CC(C)(C)N(C)C)CC3)C(=O)N3CCCC(N3)C(=O)OCC(C)(C)C2)C1 .
A) 5.77

====

Test system: 616215-338-R-J1-PDC complex spheroid viability
assay: Anticancer human tumor 616215-338-R-J1-PDC cell line growth inhibition [RAS];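 also: spheroids exposed to agents for seven days before viability readout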
settings: curve of first compound; second compound 0.0949 µM
pIC50: −log10 of the molar value.
I'd appreciate it if you could supply pIC50 values for the items below.

compound: Nc1ccn(C2OC(CO)C(O)C2(F)F)c(=O)n1 (stereo not drawn) + CCn1c(-c2cc(N3CCN(C)CC3)cnc2C(C)OC)c2c3cc(ccc31)-c1csc(n1)CC(NC(=O)C1CC1C)C(=O)N1CCCC(N1)C(=O)OCC(C)(C)C2
test_result: > 8.50

compound: O=C(c1ccc(F)c(F)c1Nc1ccc(I)cc1F)N1CC(O)([C@@H]2CCCCN2)C1 + CCn1c(-c2cc(N3CCN(C)CC3)cnc2C(C)OC)c2c3cc(ccc31)-c1csc(n1)CC(NC(=O)C1CC1C)C(=O)N1CCCC(N1)C(=O)OCC(C)(C)C2
test_result: > 8.50

Kindly consider the entry below.
Q) Form: Entry = Cc1nc(N2CCC3(CC2)COC(C)C3N)c(CO)nc1Sc1ccnc(N)c1Cl (stereo not drawn) + CCn1c(-c2cccnc2C(C)OC)c2c3cc(ccc31)N1CCOC(CC(NC(=O)C(C(C)C)N(C)C(=O)C3(F)CCN(C(=O)C#CC(C)(C)N(C)C)CC3)C(=O)N3CCCC(N3)C(=O)OCC(C)(C)C2)C1 | System = 616215-338-R-J1-PDC complex spheroid viability | pIC50 = ____
A) < 5.00

====

I'd appreciate it if you could supply viability, T/C values for the items below.
Tested on: 616215-338-R-J1-PDC complex spheroid viability
assay: Anticancer human tumor 616215-338-R-J1-PDC cell line growth inhibition [RAS];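 also: spheroids exposed to agents for seven days before viability readout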;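 as to viability, T/C: 100% = DMSO vehicle control viability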
settings: second compound 0.316 µM; first compound 10 µM; stronger effect = lower value
Numbers only, in %.

compound: Cc1nc(N2CCC3(CC2)COC(C)C3N)c(CO)nc1Sc1ccnc(N)c1Cl (stereo not drawn) + C=CC(=O)N1CCN(c2nc(OCC3CCCN3C)nc3c(F)c(-c4nc(N)cc(C)c4C(F)(F)F)c(Cl)cc23)C(C)C1
unit_symbol: %
viability, T/C: 73

compound: Cc1nc(N2CCC3(CC2)COC(C)C3N)c(CO)nc1Sc1ccnc(N)c1Cl (stereo not drawn) + C#Cc1c(F)ccc2cc(O)cc(-c3ncc4c(N5CC6CCC(C5)N6)nc(OCC56CCCN5CC(F)C6)nc4c3F)c12
unit_symbol: %
viability, T/C: 42.1

Kindly consider the entry below.
Q) Give the measured viability, T/C of CC(C)NCC(C(=O)N1CCN(c2ncnc3c2C(C)CC3O)CC1)c1ccc(Cl)cc1 (stereo not drawn) + C=CC(=O)N1CCN(c2nc(OCC3CCCN3C)nc3c(F)c(-c4nc(N)cc(C)c4C(F)(F)F)c(Cl)cc23)C(C)C1 .
A) 48.5
